Target: Torsin-1A (Homo sapiens)
Experiment: small-molecule binders of mutant TOR1A in lysate, primary screen, cell lysate, small-molecule microarray, COS7 lysate, 635/667 nm fluorescence (AID 1150);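 further: score pools 667 nm emission and signal to noise measuring lysate protein binding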
Settings: COS7 hTOR1A mutant lysate, 635 nm fluorescence, higher = more signal
Binary classification by composite z-score, with 0.1 as an inclusive lower bound for 1; all other cases are 0.

>  <compound>
CCOC(=O)CCN1C(=O)[C@H]2[C@H]3[C@H](O)[C@H](O)CC(=NNC(=O)OCc4ccccc4)[C@@H]3CC[C@H]2C1=O

>  <target of assay>
Torsin-1A (Homo sapiens)

>  <category>
1

$$$$
>  <compound>
C=CC[C@@H]1C=C[C@H](ON=C2[C@H]3CCn4c(=O)n(-c5ccccc5)c(=O)n4[C@H]3[C@H](O)[C@@H]3O[C@H]23)[C@@H](CO)O1

>  <target of assay>
Torsin-1A (Homo sapiens)

>  <category>
1

$$$$
>  <compound>
O=C1CCCC=C1C(O)CCOC(c1ccccc1)(c1ccccc1)c1ccccc1 (configuration not stated)

>  <target of assay>
Torsin-1A (Homo sapiens)

>  <category>
0

$$$$
>  <compound>
CCOC(=O)[C@H](CC(C)C)NC(=O)CCC1CC(OC(=O)NCc2cccc3ccccc23)CC2(CCCC(COC(=O)NCCOc3ccccc3)O2)O1 (some centres not stated)

>  <target of assay>
Torsin-1A (Homo sapiens)

>  <category>
1

$$$$
>  <compound>
C[C@H]1COC(=O)[C@@H]2CCCN2C(=O)[C@@H](C)COC(=O)[C@H](Cc2ccccc2)NC1=O

>  <target of assay>
Torsin-1A (Homo sapiens)

>  <category>
0

$$$$
>  <compound>
COc1ccc(O[C@H]2C=C[C@@H](c3ccccc3)O[C@@H]2CON=C(C)C)cc1

>  <target of assay>
Torsin-1A (Homo sapiens)

>  <category>
0

$$$$
>  <compound>
CCOC(=O)[C@H](CC(C)C)NC(=O)CCC1CC(OC(=O)NCc2cccc3ccccc23)CC2(CCCC(COC(=O)NCCOC)O2)O1 (some centres not stated)

>  <target of assay>
Torsin-1A (Homo sapiens)

>  <category>
1

$$$$
